Parameter IC50: see the listing below.
Tested On: adenosine A3 receptor (Homo sapiens (Human))
Sequence (P0DMS8 whole entry): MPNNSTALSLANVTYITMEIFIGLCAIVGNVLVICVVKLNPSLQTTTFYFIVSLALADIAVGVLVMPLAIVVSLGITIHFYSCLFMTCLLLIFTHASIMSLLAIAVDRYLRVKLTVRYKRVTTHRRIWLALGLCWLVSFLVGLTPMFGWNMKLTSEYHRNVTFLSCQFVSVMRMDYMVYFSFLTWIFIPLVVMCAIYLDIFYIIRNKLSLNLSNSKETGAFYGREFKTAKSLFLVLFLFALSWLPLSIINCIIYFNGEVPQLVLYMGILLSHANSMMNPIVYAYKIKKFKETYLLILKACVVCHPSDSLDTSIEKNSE
Assay Details: Adenosine receptor activity assay (Table 1), A3 cAMP
Assay type: cell-based

Use these answered entries as a reference point.
CO[C@@H]1CCN(C(=O)c2nc(N[C@@H](C)c3cncc(Cl)c3)nc3ccsc23)C1 [Example Z253] ... > 500 nM
C[C@H](Nc1nc(C(=O)N2CC[C@H](O)C2)c2sc(C(F)(F)F)cc2n1)c1cncc(F)c1 [Example Z346] ... > 500 nM
Cc1cc2nc(N[C@@H](C)c3cccnc3)nc(C(=O)N3CC[C@H](O)C3)c2s1 [Example Z297] ... > 500 nM

adenosine A3 receptor (Homo sapiens (Human)) IC50 of Cc1cc2nc(N[C@@H](C)c3cncc(F)c3)nc(C(=O)NCC(C)(C)O)c2s1 [Example Z308] is 50 to 100 nM

// provenance: patent US11254686B1
